- procedure details: Drug uptake in mouse brain at […], sc after 30 mins
- Assay type: ADME, organism-based
- assay context: read-out: Drug uptake
parameter: concentration at 0.5 h (nM)
Provide only the numeric value, understood in nM.

Exam item: Which concentration at 0.5 h is listed for Cn1ncc(-c2nn(C)c3ncnc(N4CCC4)c23)c1-c1ccc(C(F)(F)F)cc1 ?
Marked response: 452

###

- procedure details: Drug uptake in mouse plasma at […], sc after 30 mins
- Type: ADME, organism-based
parameter: concentration at 0.5 h

Exam item: Which concentration at 0.5 h is listed for Cn1ncc(-c2nn(C)c3ncnc(N4CCC4)c23)c1-c1ccc(C(F)(F)F)cc1 ?
Marked response: 798 nM

###

- procedure details: Ratio of unbound concentration in mouse brain to plasma at […], sc after 30 mins
- Type: ADME, organism-based
- assay context: brain and plasma, read-out: K(p,uu,brain)
parameter: Kp uu at 0.5 h
Enter the number alone.

Exam item: Which Kp uu at 0.5 h is listed for Cn1ncc(-c2nn(C)c3ncnc(N4CCC4)c23)c1-c1ccc(C(F)(F)F)cc1 ?
Marked response: 0.27

###

- procedure details: Drug uptake in rat brain at 3 mg/kg, sc after 30 mins
- Format: ADME, organism-based
- assay context: read-out: Drug uptake
parameter: concentration at 0.5 h (nM)
Provide only the numeric value, understood in nM.

Exam item: Which concentration at 0.5 h is listed for Cn1ncc(-c2nn(C)c3ncnc(N4CCC4)c23)c1-c1ccc(C(F)(F)F)cc1 ?
Marked response: 950
